Origin of measurements: patent US20230312605A1

# MEASUREMENT TARGET: recombinant DYRK1A kinase (Homo sapiens (Human), UniProt Q13627)
# ASSAY OVERVIEW: DYRK1A kinase assay (Ser/Thr 18 peptide Z-lyte FRET assay)
# CONDITION SET: recombinant DYRK1A 0.25 µg/mL, ATP 15 µM, Ser/Thr peptide 18 4 µM, one hour at room temperature; table head prints EC50, method says IC50
# Description: Representative compounds were screened using the assay procedure for DYRK1A kinase activity as described below. Each compound was dissolved in DMSO as a 10 mM stock and used to prepare compound source plates. […] The Emission ratio (Em) was calculated as a ratio of the coumarin (C) emission signal (at 445 nm)/Fluorescein (F) emission signal (at 520 nm). […]
Mark True for EC50 under 20 nM, False if at or over.

- SMILES RECORD: "c1cnc2ncc(-c3ccn4nc(N[C@H]5CC[C@@H](N6CCOCC6)CC5)ncc34)cc2c1"
  CLASS ASSIGNMENT: "False"
- SMILES RECORD: "COCCO[C@H]1C[C@@H](Nc2ncc3c(-c4cnc5nccn5c4)ccn3n2)C1"
  CLASS ASSIGNMENT: "True"
- SMILES RECORD: "CN1CCC(Nc2ncc3c(-c4cnc5ncccc5c4)ccn3n2)CC1"
  CLASS ASSIGNMENT: "True"
- SMILES RECORD: "CC(C)(F)CNc1ncc2c(-c3ccc4ncc(C(=O)N5CCCC5)n4c3)ccn2n1"
  CLASS ASSIGNMENT: "False"
- SMILES RECORD: "C[C@@H](Nc1ncc2c(-c3cnc4nccn4c3)ccn2n1)C(F)(F)F"
  CLASS ASSIGNMENT: "True"
- SMILES RECORD: "Cc1nc2ccc(-c3ccn4nc(N[C@H]5C[C@H](N6CCOCC6)C5)ncc34)nc2n1CC(F)F"
  CLASS ASSIGNMENT: "True"

Alright, here's another molecule for you.
Answer whether the molecule "CC(F)(F)CNc1ncc2c(-c3ccc4nccn4c3)ccn2n1" has EC50 strictly less than 20 nM False

* * *

# MEASUREMENT TARGET: recombinant DYRK1A kinase (Homo sapiens (Human))
# ASSAY OVERVIEW: DYRK1A kinase assay (Ser/Thr 18 peptide Z-lyte FRET assay)
# CONDITION SET: recombinant DYRK1A 0.25 µg/mL, ATP 15 µM, Ser/Thr peptide 18 4 µM, one hour at room temperature; table head prints EC50, method says IC50
pEC50: −log10 of the molar value.
Classification field: rule met = pEC50 at or over 8; rule not met = pEC50 under 8.

Use these answered entries as a reference point.
- MOLECULE: "CC(=O)N1CC[C@@H](Nc2ncc3c(-c4ccc5nc(C)n(CC(F)F)c5n4)ccn3n2)[C@@H](F)C1"
  CLASS ASSIGNMENT: "rule met"
- MOLECULE: "Cc1nc2ncc(-c3ccn4nc(N[C@H]5CC[C@@](C)(O)CC5)ncc34)nc2n1CC(F)F"
  CLASS ASSIGNMENT: "rule met"
- MOLECULE: "CC1(C)CC(Nc2ncc3c(-c4cnc5nccn5c4)ccn3n2)C1"
  CLASS ASSIGNMENT: "rule met"
- MOLECULE: "COCCNc1ncc2c(-c3ccc4nccn4c3)ccn2n1"
  CLASS ASSIGNMENT: "rule not met"
- MOLECULE: "COCCO[C@H]1CC[C@@H](Nc2ncc3c(-c4cnc5nc(C)n(CC(F)F)c5c4)ccn3n2)CC1"
  CLASS ASSIGNMENT: "rule met"

Can "FC1(F)CC2(CC(Nc3ncc4c(-c5cnc6nccn6c5)ccn4n3)C2)C1" be said to have pEC50 at or above 8? rule met

Can Cc1nc2ccc(-c3ccn4nc(NCC5CN(C)CCO5)ncc34)nc2n1CC(F)F (centres unmarked) be said to have pEC50 at or above 8? rule met

Can "FC1(F)CC(Nc2ncc3c(-c4ccc5nccn5c4)ccn3n2)C1" be said to have pEC50 at or above 8? rule not met

Can "Cc1nc2ccc(-c3ccn4nc(N[C@H]5CN(C)C[C@@H]5F)ncc34)nc2n1CC(F)F" be said to have pEC50 at or above 8? rule met

Can "Cc1nc2ccc(-c3ccn4nc(NC5CCOCC5)ncc34)nc2n1CC(C)(C)O" be said to have pEC50 at or above 8? rule not met

Can "Cc1nc2ccc(-c3ccn4nc(NC5CCC(F)(F)CC5)ncc34)nc2n1CC(C)(C)O" be said to have pEC50 at or above 8? rule not met

Can "CC1(CNc2ncc3c(-c4ccc5nccn5c4)ccn3n2)CC1" be said to have pEC50 at or above 8? rule not met
